Test system: Escherichia coli TOP10
Assay info: shrunken log2 fold change of peptide-encoding DNA abundance (4.5 h post-induction vs induction); higher = less antimicrobial activity (less host growth inhibition)
Assay conditions: time post-induction: 4.5 h; library: site-saturation at positions 5, 18, 19, 20
Measured quantity: shrunken log2 fold change
Response field accepts a number only; no unit should be typed.

Exercise: Bench note: what shrunken log2 fold change did `RRIRFRPPRLPRPRPRPDDQPRP` show?
Key: -0.151

Exercise: // query shrunken log2 fold change value for entry `RRIRYRPPRLPRPRPRPYSQPRP`
Key: -0.505

Exercise: Need shrunken log2 fold change of `RRIRCRPPRLPRPRPRPWDRPRP` , thanks.
Key: -0.608

Exercise: Entry `RRIRNRPPRLPRPRPRPINNPRP` : reported shrunken log2 fold change = ?
Key: -0.652

Exercise: Please give the measured shrunken log2 fold change for this sequence: `RRIRKRPPRLPRPRPRPCVCPRP`
Key: 0.0462

Exercise: Sample `RRIRARPPRLPRPRPRPYCCPRP` — what was its shrunken log2 fold change?
Key: -0.181

Exercise: Query (sequence): `RRIRSRPPRLPRPRPRPNHTPRP` ; field requested: shrunken log2 fold change
Key: -0.444

Exercise: Request the reported shrunken log2 fold change associated with `RRIRVRPPRLPRPRPRPMAFPRP`
Key: -0.00965

---

Test system: Escherichia coli TOP10
Assay info: shrunken log2 fold change of peptide-encoding DNA abundance (4.5 h post-induction vs induction); higher = less antimicrobial activity (less host growth inhibition)
Assay conditions: time post-induction: 4.5 h; library: site-saturation at positions 5, 18, 19, 20
shrunken log2 fold change class ranges: 0 (below 0.07), 1 (0.07 to below 0.2), 2 (0.2 or more)

Exercise: Lab note: sort `RRIRYRPPRLPRPRPRPSCIPRP` into the matching shrunken log2 fold change band.
Key: 0

Exercise: Please classify: `RRIRFRPPRLPRPRPRPRALPRP`
Key: 1

Exercise: Looking at `RRIRVRPPRLPRPRPRPTHQPRP` , which class would you pick?
Key: 2

Exercise: Field: class (shrunken log2 fold change) — entry: `RRIRYRPPRLPRPRPRPFFHPRP`
Key: 0

Exercise: Pick a category. Item: `RRIRNRPPRLPRPRPRPAKTPRP`
Key: 1

Exercise: Hey, which category is `RRIRNRPPRLPRPRPRPTQAPRP` in, do you know?
Key: 2

Exercise: Could you place `RRIRMRPPRLPRPRPRPLCGPRP` in its proper category? Many thanks.
Key: 2

Exercise: State the class of the sequence shown: `RRIRARPPRLPRPRPRPAGLPRP`
Key: 2

---

Tested on: Escherichia coli TOP10
Assay info: shrunken log2 fold change of peptide-encoding DNA abundance (4.5 h post-induction vs induction); higher = less antimicrobial activity (less host growth inhibition)
Assay conditions: time post-induction: 4.5 h; library: site-saturation at positions 5, 18, 19, 20
So basically: shrunken log2 fold change at -0.2 or higher? That is 1 (yes). Lower than -0.2? That is 0 (no).

Exercise: Tell me whether shrunken log2 fold change is at least -0.2 here: `RRIRVRPPRLPRPRPRPYLDPRP`
Key: 1 (yes)

Exercise: I'd appreciate it if you could say whether `RRIRERPPRLPRPRPRPQNLPRP` has shrunken log2 fold change at least equal to -0.2.
Key: 0 (no)

Exercise: API: above_or_equal(metric=shrunken log2 fold change, cutoff=-0.2) for item `RRIRQRPPRLPRPRPRPRIDPRP`
Key: 1 (yes)

Exercise: Test whether the sequence `RRIRHRPPRLPRPRPRPNAHPRP` records shrunken log2 fold change of -0.2 or higher.
Key: 1 (yes)

Exercise: hey, is shrunken log2 fold change for this one >= -0.2? `RRIRIRPPRLPRPRPRPFPVPRP`
Key: 0 (no)

Exercise: Form field: shrunken log2 fold change at least -0.2? Entry: `RRIRGRPPRLPRPRPRPTQQPRP`
Key: 1 (yes)

Exercise: Given `RRIRQRPPRLPRPRPRPEVHPRP` , state whether its shrunken log2 fold change is at least -0.2.
Key: 1 (yes)

Exercise: // inclusive: shrunken log2 fold change at least -0.2? input: `RRIRVRPPRLPRPRPRPESFPRP`
Key: 1 (yes)

Exercise: Hello, I need to know if `RRIRCRPPRLPRPRPRPHMDPRP` has measured shrunken log2 fold change not below -0.2. Thanks!
Key: 0 (no)

Exercise: Is shrunken log2 fold change for `RRIRGRPPRLPRPRPRPYDPPRP` at or above -0.2?
Key: 1 (yes)

Exercise: Check if shrunken log2 fold change >= -0.2 (inclusive). Item: `RRIRSRPPRLPRPRPRPCMFPRP`
Key: 0 (no)

Exercise: Reported shrunken log2 fold change reaches at least -0.2 for `RRIRGRPPRLPRPRPRPEHVPRP` ?
Key: 1 (yes)

Exercise: Does the sequence `RRIRARPPRLPRPRPRPKWGPRP` have recorded shrunken log2 fold change that is -0.2 or more?
Key: 1 (yes)

Exercise: Has `RRIRGRPPRLPRPRPRPTSWPRP` a recorded shrunken log2 fold change greater than or equal to -0.2?
Key: 1 (yes)

Exercise: Determine whether measured shrunken log2 fold change meets or exceeds -0.2 for `RRIRFRPPRLPRPRPRPMISPRP`
Key: 0 (no)

Exercise: Identify whether the reported shrunken log2 fold change of the following sequence is -0.2 or greater: `RRIRMRPPRLPRPRPRPNMLPRP`
Key: 0 (no)

Exercise: Please tell me: is the sequence `RRIRKRPPRLPRPRPRPGHPPRP` at or over -0.2 in terms of shrunken log2 fold change?
Key: 1 (yes)

Exercise: Is shrunken log2 fold change for `RRIRPRPPRLPRPRPRPILVPRP` at or above -0.2?
Key: 1 (yes)

Exercise: Quick check, shrunken log2 fold change >= -0.2? `RRIRIRPPRLPRPRPRPKKCPRP`
Key: 1 (yes)

Exercise: Can `RRIRSRPPRLPRPRPRPGPGPRP` be said to have shrunken log2 fold change at or above -0.2?
Key: 1 (yes)

Exercise: Check this sequence for shrunken log2 fold change at or above -0.2: `RRIRKRPPRLPRPRPRPVDVPRP`
Key: 1 (yes)

Exercise: Item `RRIRFRPPRLPRPRPRPCYCPRP` with shrunken log2 fold change of -0.2 or above?
Key: 1 (yes)

Exercise: Say whether `RRIRQRPPRLPRPRPRPMRIPRP` shows shrunken log2 fold change of -0.2 or more.
Key: 1 (yes)

Exercise: State whether the measured shrunken log2 fold change reaches -0.2, counting equality as reaching it, for `RRIRDRPPRLPRPRPRPSHLPRP`
Key: 0 (no)

Exercise: Does the reported shrunken log2 fold change for `RRIRNRPPRLPRPRPRPDFVPRP` fall at or above the -0.2 mark?
Key: 1 (yes)

---

System: Escherichia coli TOP10
Assay info: shrunken log2 fold change of peptide-encoding DNA abundance (4.5 h post-induction vs induction); higher = less antimicrobial activity (less host growth inhibition)
Assay conditions: time post-induction: 4.5 h; library: site-saturation at positions 5, 18, 19, 20
# if value of shrunken log2 fold change reaches 0.1, tag 1; if it stays below, tag 0

Exercise: Answer whether shrunken log2 fold change of `RRIRKRPPRLPRPRPRPLMNPRP` is greater than or equal to 0.1.
Key: 1

Exercise: Has `RRIRRRPPRLPRPRPRPKQLPRP` a recorded shrunken log2 fold change greater than or equal to 0.1?
Key: 1

Exercise: Is the recorded value of shrunken log2 fold change equal to or greater than 0.1 for this sequence? `RRIRWRPPRLPRPRPRPVTAPRP`
Key: 1

Exercise: Please indicate if the recorded shrunken log2 fold change for `RRIRVRPPRLPRPRPRPKTIPRP` meets or exceeds 0.1.
Key: 0

Exercise: I'd appreciate it if you could say whether `RRIRVRPPRLPRPRPRPLWHPRP` has shrunken log2 fold change at least equal to 0.1.
Key: 0

Exercise: Quick check, shrunken log2 fold change >= 0.1? `RRIRKRPPRLPRPRPRPVGTPRP`
Key: 1

Exercise: Is shrunken log2 fold change for `RRIRARPPRLPRPRPRPEGGPRP` at or above 0.1?
Key: 1

Exercise: Say whether `RRIRNRPPRLPRPRPRPRKSPRP` shows shrunken log2 fold change of 0.1 or more.
Key: 1

Exercise: Evaluate `RRIRLRPPRLPRPRPRPFSGPRP` : shrunken log2 fold change at minimum 0.1?
Key: 0

---

Tested on: Escherichia coli TOP10;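 note: peptides expressed intracellularly from a pBAD plasmid library in pooled LB shake-flask culture, induced with 0.3% L-arabinose, DNA abundance read by NGS, three biological replicates, DESeq2 with apeglm shrinkage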
Assay info: shrunken log2 fold change of peptide-encoding DNA abundance (4.5 h post-induction vs induction); higher = less antimicrobial activity (less host growth inhibition)
Assay conditions: time post-induction: 4.5 h; library: site-saturation at positions 5, 18, 19, 20
Kindly state shrunken log2 fold change for each of the entries shown.
Form field (numeric): enter value without unit.

Exercise: Please give the measured shrunken log2 fold change for this sequence: `RRIRFRPPRLPRPRPRPAPDPRP`
Key: 0.323

Exercise: What value of shrunken log2 fold change has been reported for the following sequence? `RRIRCRPPRLPRPRPRPSQVPRP`
Key: -0.156

Exercise: Please give the measured shrunken log2 fold change for this sequence: `RRIRPRPPRLPRPRPRPKHGPRP`
Key: 0.127

Exercise: Could you share which shrunken log2 fold change value was measured for `RRIRKRPPRLPRPRPRPPFMPRP` ?
Key: 0.517

This collection of values is drawn from the supplement of paper PMC9112550.
